Biological target: ACE from pig kidney (Sus scrofa, UniProt F1RRW5)
Construct: 1 mU ACE from pig kidney (EC 3.4.15.1 (Sigma)); purchased Sigma; host or cells: pig kidney (tissue-derived enzyme)
Sequence (F1RRW5 34-1309): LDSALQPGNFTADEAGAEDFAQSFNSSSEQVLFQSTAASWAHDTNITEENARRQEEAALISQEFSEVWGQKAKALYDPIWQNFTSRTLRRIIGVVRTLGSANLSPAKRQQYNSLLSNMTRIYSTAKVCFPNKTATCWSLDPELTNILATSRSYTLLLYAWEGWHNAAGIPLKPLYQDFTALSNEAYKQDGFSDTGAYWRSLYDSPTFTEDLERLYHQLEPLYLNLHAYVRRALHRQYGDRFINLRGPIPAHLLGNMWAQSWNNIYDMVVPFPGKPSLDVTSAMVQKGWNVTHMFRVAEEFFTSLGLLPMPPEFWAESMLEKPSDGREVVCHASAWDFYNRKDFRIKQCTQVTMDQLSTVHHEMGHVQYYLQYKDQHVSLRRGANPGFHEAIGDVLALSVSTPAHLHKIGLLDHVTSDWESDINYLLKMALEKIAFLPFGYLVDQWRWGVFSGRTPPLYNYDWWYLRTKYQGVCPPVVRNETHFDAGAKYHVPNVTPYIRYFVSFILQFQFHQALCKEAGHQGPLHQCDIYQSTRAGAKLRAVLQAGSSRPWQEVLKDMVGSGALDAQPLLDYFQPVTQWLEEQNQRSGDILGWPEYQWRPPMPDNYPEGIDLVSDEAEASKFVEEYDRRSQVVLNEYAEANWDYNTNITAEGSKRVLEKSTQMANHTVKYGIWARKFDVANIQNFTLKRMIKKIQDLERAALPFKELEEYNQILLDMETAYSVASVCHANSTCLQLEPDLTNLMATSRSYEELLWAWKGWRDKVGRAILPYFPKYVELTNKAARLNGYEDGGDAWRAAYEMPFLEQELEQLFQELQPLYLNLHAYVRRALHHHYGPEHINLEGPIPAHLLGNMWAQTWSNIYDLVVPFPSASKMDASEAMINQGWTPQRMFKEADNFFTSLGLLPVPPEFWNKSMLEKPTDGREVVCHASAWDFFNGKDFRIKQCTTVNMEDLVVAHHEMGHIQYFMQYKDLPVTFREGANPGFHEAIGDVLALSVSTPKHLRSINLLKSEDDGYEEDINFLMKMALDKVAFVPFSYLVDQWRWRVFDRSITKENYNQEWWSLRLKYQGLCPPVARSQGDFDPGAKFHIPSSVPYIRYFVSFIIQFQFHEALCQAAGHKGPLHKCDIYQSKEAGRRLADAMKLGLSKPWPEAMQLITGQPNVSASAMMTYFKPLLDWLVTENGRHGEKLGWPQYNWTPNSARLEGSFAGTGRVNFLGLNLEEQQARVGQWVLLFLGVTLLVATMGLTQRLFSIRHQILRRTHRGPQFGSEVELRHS
Experiment: biochemical
Type: biochemical
Conditions: inhibitor 100 μM; replicates A-D
Ends that are not written are not given here.
Provide the recorded inhibition at 100 µM for the entries that follow.
Give bare numbers, in %.

# SUBSTANCE, TARGET OF ASSAY, UNIT ABBREV, inhibition at 100 µM
measured = [
    ("GAALSPLPEVPP [Peptide S544]", "ACE from pig kidney (Sus scrofa, UniProt F1RRW5)", "%", 83.8),
    ("EAGAALSPLPEVPP [Peptide S542]", "ACE from pig kidney (Sus scrofa, UniProt F1RRW5)", "%", 72.3),
    ("AGAALSPLPEVPP [Peptide S543]", "ACE from pig kidney (Sus scrofa, UniProt F1RRW5)", "%", 80),
]

Provide inhibition at 100 µM values for the following items, in order.
1. PLPEVPP [Peptide S548, PLPEVPP]
2. AALSPLPEVPP [Peptide S494]

1: 80.4; 2: 92.3

Report value only: inhibition at 100 µM, ACE from pig kidney (Sus scrofa, UniProt F1RRW5), LSPLPEVPP [Peptide S546] 96.4
